This collection of values is drawn from paper PMC9352680.

Target: T1, PUF4 RNA-binding domain (Saccharomyces cerevisiae, UniProt P25339 537-888)
T1 sequence: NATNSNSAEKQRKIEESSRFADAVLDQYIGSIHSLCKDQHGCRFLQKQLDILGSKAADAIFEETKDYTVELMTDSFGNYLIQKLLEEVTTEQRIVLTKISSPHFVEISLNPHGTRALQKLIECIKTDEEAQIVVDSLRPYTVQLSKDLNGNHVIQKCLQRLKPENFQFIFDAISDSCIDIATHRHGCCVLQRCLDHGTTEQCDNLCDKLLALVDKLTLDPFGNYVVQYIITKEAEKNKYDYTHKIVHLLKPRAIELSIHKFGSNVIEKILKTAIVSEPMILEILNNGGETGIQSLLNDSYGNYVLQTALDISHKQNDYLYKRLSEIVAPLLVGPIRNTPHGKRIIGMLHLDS
Experiment: Mg; RNA-MaP; 20 mM Na-HEPES pH 7.4, 30 mM KOAc, 0.75 mM MgCl2, 0.1% Tween-20, 5% glycerol, 0.1 mg/mL BSA, 2 mM DTT; 25 C; 0.0125-409.6 nM protein
Settings: tags: N-His6-TEV cleaved; C-SNAP kept, Cy3B-labelled; label: tethered on chip by stalled RNA polymerase
pKd: −log10 of the molar value.
# label = class 1 if pKd >= 8 else class 0

Worked examples follow.
[[record]]
binder = "Ic_S2_P5E.1_K5.1_C5.1_H5.1_A5.1_[T5C]_[T6A]_[A7C]_F5.1_[T9C]_[A10C]_T5.1 (ssRNA) RNA: UUUGAUUAAUAUGAUAUCGUUCUUUCUUGUACACUCCUUCUUUCUCGAUAUCAUAUUAAUCUUU"
label_value = "class 1"

[[record]]
binder = "Ic_S4_P4E.1_K4.1_C4.1_H4.1_A4.1_[A6G]_[T7C]_F4.1_[T8A]_T4.1 (ssRNA) RNA: UUUGACAACUGAUCGUUCUUUCUUGUAUGCAAUUCUUUCUCGAUCAGUUGUCUUU"
label_value = "class 0"

[[record]]
binder = "Id_iii_S2_P4E.6_K4.2_C4.3_[T-3C]_H4.2_A4.1_F4.1_T4.2 (ssRNA) RNA: UUUGAUUAAUAUGAUAUCGUUCUUUCUCCUUAUAUAUUAGUUUCUUUCUCGAUAUCAUAUUAAUCUUU"
label_value = "class 1"

[[record]]
binder = "UCUCUUUCUGUAUAUAAUUCUCUU (ssRNA) [Id_ii_S1_P3E.2_K3.1_C3.2_[C-2T]_[T-1C]_H3.1_A3.1_F3.1_T3.2_[T9A]_[A10T]]"
label_value = "class 1"

[[record]]
binder = "ACAAACGUUAUAUAUUAUUACAAAC (ssRNA) [Id_ii_S3_P4E.3_K4.2_C4.2_[C-2G]_H4.2_A4.1_F4.1_T4.2_[G10T]]"
label_value = "class 0"

[[record]]
binder = "Id_ii_S4_P3E.3_K3.2_C3.2_[C-2G]_[T-1G]_H3.2_A3.1_F3.1_T3.2_[T9A] (ssRNA) RNA: UUUGACAACUGAUCGUUCUUUCUGGUAUAUAUAAAUUCUUUCUCGAUCAGUUGUCUUU"
label_value = "class 0"

[[record]]
binder = "Id_ii_S4_P4E.4_K4.3_C4.2_[C-2G]_[T-1C]_H4.3_A4.1_F4.1_T4.2_[G10C]_[T11G] (ssRNA) RNA: UUUGACAACUGAUCGUUCUUUCUGCACACUAUUACGUUCUUUCUCGAUCAGUUGUCUUU"
label_value = "class 0"

[[record]]
binder = "UCUCUUUGUACGCAAUCUCUU (ssRNA) [Ic_S1_P4E.1_K4.1_C4.1_H4.1_A4.1_[T5C]_[A6G]_[T7C]_F4.1_[T8A]_T4.1]"
label_value = "class 0"

[[record]]
binder = "ACAAACUGUAUUAUUCUCAACAAAC (ssRNA) [Ie_S3_P5E.1_K5.1_C5.1_H5.1_A5.1_F5.1_[+9CTC]_T5.1]"
label_value = "class 0"

[[record]]
binder = "Ic_S4_P4E.1_K4.1_C4.1_H4.1_A4.1_[T5C]_[T7A]_F4.1_T4.1 (ssRNA) RNA: UUUGACAACUGAUCGUUCUUUCUUGUACAAUAUUCUUUCUCGAUCAGUUGUCUUU"
label_value = "class 1"


Test whether the binder ACAAACAAGUAUAUAUAUAACAAAC (ssRNA) [Id_i_S3_P3E.6_K3.2_C3.3_[T-3A]_[C-2A]_[T-1G]_H3.2_A3.1_F3.1_T3.2] records pKd of 8 or higher.
class 0

How about UCUCUUUGUAAUUCUCUCUU (ssRNA) [Ic_S1_P3E.1_K3.1_C3.1_H3.1_A3.1_[T5A]_[A6T]_F3.1_[A8C]_T3.1] ?
class 0

How about ACAAACACUAUAUAUACUACAAAC (ssRNA) [Id_ii_S3_P3E.3_K3.2_C3.2_[C-2A]_[T-1C]_H3.2_A3.1_F3.1_T3.2_[T9C]_[A10T]] ?
class 0
